Where do the numbers come from? From patent US20240116853A1.

test_details: apparent solubility tested by HPLC
Assay type: physicochemical
stated_conditions: thermodynamic from solid, tested by HPLC
endpoint_name: solubility (µg/mL)
Give bare numbers, in µg/mL.

Requested field: solubility. Item: O=C(O)c1cc(NCCc2ccc(C(F)(F)F)cc2)ccc1O [Raw material, reference compound]
1770
